B1: GLT8D2 (parent)
chain: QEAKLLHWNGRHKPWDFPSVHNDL

Variants of: B1
Assay: protein stability index of a GFP-peptide fusion (GPS, HEK-293T) (PSI 1-6); higher = more stable;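 note: lentivirally expressed fusions sorted by FACS into six bins by GFP to DsRed ratio, PSI derived from sequencing read proportions per bin multiplied by bin number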
Details: c terminus: a fixed tail appended
So I've got a bunch of variants here, and I need their protein stability index values.
Give bare numbers.

Solved cases below.
> print(dat)
   change  experimental.result
1     A3D                 3.47
2    P18H                 2.58
3     H7T                 2.88

Parameters: items (list). Returns: protein stability index for each item.
1. H12F
2. H7L
3. R11N
4. L6N
5. K4T

Return:
1. 2.13
2. 2.15
3. 3.05
4. 2.71
5. 2.92

Look at each variant and report its protein stability index.
1. V20R
2. F17Q
3. D23S

Return:
1: 2.94; 2: 3.3; 3: 2.17

Batch lookup, protein stability index per entry.
1. L5E
2. L6V

Return:
[3.33, 2.48]
